Target: T1, Human OSM (human, UniProt P13725 26-221)
T1 construct: Recombinant human OSM; also called hOSM; human Oncostatin M
T1 sequence: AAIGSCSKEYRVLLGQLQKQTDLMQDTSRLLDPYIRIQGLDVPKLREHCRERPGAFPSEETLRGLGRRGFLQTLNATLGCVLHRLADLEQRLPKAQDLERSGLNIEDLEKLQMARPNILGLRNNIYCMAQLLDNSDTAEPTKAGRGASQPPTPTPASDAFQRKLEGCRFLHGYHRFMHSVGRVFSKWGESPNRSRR
Assay: SPR (ProteOn XPR36 or Biacore T100), captured supernatant, OSM as analyte; grey cell: 3x decrease in binding
pKd reference
In plain terms, pKd is the concentration in mol/L turned into minus its base-10 logarithm.

-- ask Return reported pKd. Input binder: Pos 100A Gln (antibody, V domains shown, also called CDRH3 F100A>Q) VH: EVQLVESGGGLVQPGGSLRLSCAASGFTFSSYAMSWVRQAPGKGLEWVATISDGGSFTYYLDNVRGRFTISRDNAKNSLYLQMNSLRAEDTAVYYCARDVGHTTQWYFDVWGRGTLVTVSS VL: DIVMTQSPDSLAVSLGERATINCRASKSVSAAGYNFMHWYQQKPGQPPKVLIYYASNLESGVPDRFSGSGSGTDFTLTISSLQAEDVAVYYCLHSREFPFTFGGGTKVEIKR
-- reply 7.84

-- ask Return reported pKd. Input binder: Pos 100C Gln (antibody, V domains shown, also called CDRH3 Y100C>Q) VH: EVQLVESGGGLVQPGGSLRLSCAASGFTFSSYAMSWVRQAPGKGLEWVATISDGGSFTYYLDNVRGRFTISRDNAKNSLYLQMNSLRAEDTAVYYCARDVGHTTFWQFDVWGRGTLVTVSS VL: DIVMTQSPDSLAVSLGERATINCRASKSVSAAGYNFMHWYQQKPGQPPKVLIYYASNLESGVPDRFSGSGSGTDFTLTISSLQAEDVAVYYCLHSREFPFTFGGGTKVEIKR
-- reply 8.93

-- ask Return reported pKd. Input binder: Pos 100B Gln (antibody, V domains shown, also called CDRH3 W100B>Q) VH: EVQLVESGGGLVQPGGSLRLSCAASGFTFSSYAMSWVRQAPGKGLEWVATISDGGSFTYYLDNVRGRFTISRDNAKNSLYLQMNSLRAEDTAVYYCARDVGHTTFQYFDVWGRGTLVTVSS VL: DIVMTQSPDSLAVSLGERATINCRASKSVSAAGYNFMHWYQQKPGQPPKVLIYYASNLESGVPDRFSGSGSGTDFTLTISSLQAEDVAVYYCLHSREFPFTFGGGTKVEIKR
-- reply 8.47

-- ask Return reported pKd. Input binder: Pos 100A His (antibody, V domains shown, also called CDRH3 F100A>H) VH: EVQLVESGGGLVQPGGSLRLSCAASGFTFSSYAMSWVRQAPGKGLEWVATISDGGSFTYYLDNVRGRFTISRDNAKNSLYLQMNSLRAEDTAVYYCARDVGHTTHWYFDVWGRGTLVTVSS VL: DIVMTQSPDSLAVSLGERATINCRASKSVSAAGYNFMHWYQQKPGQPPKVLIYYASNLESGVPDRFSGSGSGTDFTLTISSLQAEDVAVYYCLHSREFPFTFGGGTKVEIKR
-- reply 7.40

-- ask Return reported pKd. Input binder: Pos 100 Ala (antibody, V domains shown, also called CDRH3 T100>A) VH: EVQLVESGGGLVQPGGSLRLSCAASGFTFSSYAMSWVRQAPGKGLEWVATISDGGSFTYYLDNVRGRFTISRDNAKNSLYLQMNSLRAEDTAVYYCARDVGHTAFWYFDVWGRGTLVTVSS VL: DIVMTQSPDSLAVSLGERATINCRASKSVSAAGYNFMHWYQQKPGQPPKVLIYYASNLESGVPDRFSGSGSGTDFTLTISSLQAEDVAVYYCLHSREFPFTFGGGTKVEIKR
-- reply 8.07
